Data provenance: PubChem BioAssay

- PROTOCOL SUMMARY: small-molecule microarray binders of probe aDKK1, primary screen, biochemical, biotinylated probe, 635/667 nm fluorescence (AID 1099);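 note: score merges 667nm spot fluorescence with signal to noise across triplicate slides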
- TEST SETTINGS: higher = more signal
QUANTITY: composite z-score
Give the figure only, with no unit attached.

For orientation, consider the following solved cases.
>  <COMPOUND>
COc1ccc(C#Cc2ccc3c(c2)[C@]2(C(=O)N3)[C@H](c3ccc(O)cc3)N3[C@H](c4ccccc4)[C@H](c4ccccc4)OC(=O)[C@H]3[C@@H]2C(=O)N2CCCCCCC2)cc1

>  <QUANTITY>
composite z-score

>  <OBSERVED MEASUREMENT>
2.69

$$$$
>  <COMPOUND>
COCCCNC(=O)[C@@]1(CCC(=O)OC(C)(C)C)N=C(c2ccc(OCCCO)cc2)O[C@H]1c1ccccc1CN=[N+]=[N-]

>  <QUANTITY>
composite z-score

>  <OBSERVED MEASUREMENT>
0.965

$$$$
>  <COMPOUND>
CCCCCN1CC=CC23O[C@@H]4C=CCOC(=O)[C@@H]4[C@H]2C(=O)N(CCCO)[C@@H]3C1=O (some centres not stated)

>  <QUANTITY>
composite z-score

>  <OBSERVED MEASUREMENT>
-0.263

$$$$
>  <COMPOUND>
CC(=O)NCCCC[C@@H]1NC(=O)[C@H]2C[C@@H](C(=O)NCCCCCC[N+](C)(C)C)[C@@H](c3cccc(OCCO)c3)N2C1=O

>  <QUANTITY>
composite z-score

>  <OBSERVED MEASUREMENT>
-0.104

$$$$
>  <COMPOUND>
CCOC(=O)C[C@H]1[C@H](OC(=O)Cc2ccc3c(c2)OCO3)[C@@H](NC(=O)C2CCCCC2)c2cc(OCCCO)ccc2N1C(=O)Cc1ccc(OC)cc1

>  <QUANTITY>
composite z-score

>  <OBSERVED MEASUREMENT>
-0.244

$$$$

Prompt line: Which composite z-score value belongs to `COc1ccc([Si](C)(C)[C@H]2[C@H](CC(=O)N(CCO)Cc3ccccc3)O[C@@]3(C(=O)N(Cc4cccc(N5CCC5=O)c4)c4ccccc43)[C@@H]2C)cc1` ?
Response line: 0.122

Prompt line: Which composite z-score value belongs to `CC(C)C(=C=CC[C@@H](O)c1ccccc1OCCO)C[C@@H](O)c1ccccn1` ?
Response line: -0.235

###

- PROTOCOL SUMMARY: inhibitors of hydroxyurea-induced Chk1 phosphorylation, primary screen, imaging, HeLa, phospho-Chk1 antibody, percent positive cells (AID 1186)
- TEST SETTINGS: hydroxyurea-induced phospho-Chk1 immunofluorescence imaging, higher = more signal
# z-score listing for each entry below
Give the figure only, with no unit attached.

For orientation, consider the following solved cases.
>  <STRUCTURE>
Cc1ccc(S[C@]2(C(=O)NCc3ccccc3)CC(=O)N(Cc3ccccc3Cl)[C@@H]2c2ccc(CO)cc2I)cc1

>  <z-score>
0.0452

$$$$
>  <STRUCTURE>
COc1ccc(CCNC(=O)[C@@H]2c3ccccc3C(=O)N(Cc3ccc(OC(F)(F)F)cc3)[C@H]2c2ccc(CO)cc2)cc1

>  <z-score>
-0.232

$$$$
>  <STRUCTURE>
CCCCCCc1nc(CCCc2cc3c(c(CCCCCC)n2)[Si](C(C)C)(C(C)C)OC3)cc2c1[Si](C(C)C)(C(C)C)OC2

>  <z-score>
0.28

$$$$

Could you now look at the following compound, please?
Prompt line: Which z-score value belongs to `CN(C)CCCNC(=O)[C@@]1(Cc2ccccc2I)c2ccccc2C(=O)N(Cc2ccccc2C(F)(F)F)[C@H]1c1ccc(CO)cc1` ?
Response line: -0.239

###

- System: Fibrinogen (Alexa647-labelled)
- PROTOCOL SUMMARY: fibrinogen binders on compound microarrays, profiling panel, artefact control for SMM control-protein annotation, biochemical, small-molecule microarray, 635/667 nm fluorescence (AID 1131);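 note: z-score merges 667 nm fluorescence with per-spot signal-to-noise over triplicate slides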
- TEST SETTINGS: fibrinogen-A647 binding fluorescence, higher = more signal
# composite z-score listing for each entry below
Give the figure only, with no unit attached.

>  <COMPOUND>
COc1ccc([Si](C)(C)[C@@H]2[C@@H](CC(=O)N3CCC[C@H]3CO)O[C@]3(C(=O)N(C)c4c(Br)cc(C)cc43)[C@H]2C)cc1

>  <composite z-score>
0.935

$$$$
>  <COMPOUND>
CC(=O)NCCCC[C@@H]1NC(=O)[C@@H]2C[C@H](C(=O)NCCCCCCNC(=O)CS)[C@H](c3ccc(O)cc3)N2C1=O

>  <composite z-score>
0.224

$$$$

Prompt line: Which composite z-score value belongs to `CC(C)N1C(=O)c2ccccc2[C@@H](C(=O)NCCCN(C)C)[C@@H]1c1ccc(CO)cc1` ?
Response line: -0.305

Prompt line: Which composite z-score value belongs to CC(C)c1ccc(NN2C(C(O)c3ccc(N(C)C)cc3)C=CC3C(=O)N(c4ccccc4)C(=O)C32)cc1 (centres undefined) ?
Response line: 0.96

Prompt line: Which composite z-score value belongs to `C=C(COC)C(=O)CC[C@H](OC(C)=O)c1cccc(OCCO)c1` ?
Response line: -0.708

Prompt line: Which composite z-score value belongs to `O=C1O[C@H](c2ccccc2)[C@H](c2ccccc2)N2[C@H]1[C@@H](C(=O)N1CCN(c3ncccn3)CC1)[C@]1(C(=O)Nc3ccccc31)[C@H]2c1ccc(OCCO)cc1` ?
Response line: -0.206

Prompt line: Which composite z-score value belongs to `CCCCCCc1nc(CCCc2cc3c(c(CCCCCC)n2)[Si](C(C)C)(C(C)C)OC3)cc2c1[Si](C(C)C)(C(C)C)OC2` ?
Response line: -1.14

Prompt line: Which composite z-score value belongs to `COc1ccc(C(=O)Nc2cccc(CN3C(=O)[C@@]4(O[C@@H](CCn5cc(CCO)nn5)[C@H]([Si](C)(C)c5ccc(OC)cc5)[C@H]4C)c4ccccc43)c2)cc1` ?
Response line: 0.701

Prompt line: Which composite z-score value belongs to `COC(=O)C(CC#Cc1ccc2c(c1)[C@]1(C(=O)N2)[C@H](C(=O)NC[C@H](O)c2ccccc2)[C@H]2C(=O)O[C@H](c3ccccc3)[C@H](c3ccccc3)N2[C@@H]1c1ccc(OCCO)cc1)C(=O)OC` ?
Response line: 0.957

Prompt line: Which composite z-score value belongs to `CN(C)CCCCNC(=O)[C@H]1C[C@H]2C(=O)N[C@@H](Cc3ccccc3)C(=O)N2[C@H]1c1ccc(O)cc1` ?
Response line: 0.986

Prompt line: Which composite z-score value belongs to CCOC(=O)C1=CCC(c2ccc([N+](=O)[O-])cc2)N(S(=O)(=O)c2ccc(C)cc2)C1 (centres undefined) ?
Response line: -0.0411

Prompt line: Which composite z-score value belongs to Cc1cc(C)c(C(O)C2C=CC3C(=O)N(c4ccccc4)C(=O)C3N2Nc2ccc(C#N)cc2)c(C)c1 (centres undefined) ?
Response line: 0.912

Prompt line: Which composite z-score value belongs to `CC(C)CNC(=O)[C@@]1(c2ccc([N+](=O)[O-])cc2)CC(=O)N(CC23CC4CC(CC(C4)C2)C3)[C@@H]1c1ccc(CO)cc1I` ?
Response line: 0.635

Prompt line: Which composite z-score value belongs to `CC(=O)NCCCC[C@@H]1NC(=O)[C@H]2C[C@@H](C(=O)NCCCCCC[N+](C)(C)C)[C@@H](c3cccc(OCCO)c3)N2C1=O` ?
Response line: 0.77

###

# composite z-score listing for each entry below
- EXPERIMENTAL TARGET: E3 ubiquitin-protein ligase XIAP (Homo sapiens) (UniProt P98170)
- Sequence (P98170 whole entry, looked up): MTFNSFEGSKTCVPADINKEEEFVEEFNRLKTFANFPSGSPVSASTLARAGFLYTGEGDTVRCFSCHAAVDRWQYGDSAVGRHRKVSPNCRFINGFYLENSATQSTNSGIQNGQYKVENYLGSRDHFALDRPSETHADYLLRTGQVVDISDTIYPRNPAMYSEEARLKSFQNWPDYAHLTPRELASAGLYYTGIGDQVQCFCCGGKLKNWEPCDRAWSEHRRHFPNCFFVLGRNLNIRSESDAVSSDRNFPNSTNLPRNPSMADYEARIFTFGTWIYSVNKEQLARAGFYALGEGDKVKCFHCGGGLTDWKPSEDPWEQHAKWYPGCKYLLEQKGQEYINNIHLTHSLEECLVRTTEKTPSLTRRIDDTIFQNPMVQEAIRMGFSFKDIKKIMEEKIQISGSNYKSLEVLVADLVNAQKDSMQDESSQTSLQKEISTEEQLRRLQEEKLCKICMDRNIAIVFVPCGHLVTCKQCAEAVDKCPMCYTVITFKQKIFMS
- PROTOCOL SUMMARY: XIAP binders, primary screen, biophysical, small-molecule microarray, fluorescence 635 nm (AID 1181);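 note: score merges 667 nm emission and signal to noise over triplicate slides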
- TEST SETTINGS: small-molecule microarray binding, higher = more signal
Give the figure only, with no unit attached.

For orientation, consider the following solved cases.
>  <STRUCTURE>
[N-]=[N+]=NCc1ccccc1[C@@H]1OC(c2ccc(OCCCO)cc2)=N[C@]1(Cc1ccccc1)C(=O)N1CCCCC1

>  <QUANTITY>
composite z-score

>  <OBSERVED MEASUREMENT>
-0.257

$$$$
>  <STRUCTURE>
C=CCNC(=O)[C@@H]1[C@H]2C(=O)O[C@H](c3ccccc3)[C@H](c3ccccc3)N2[C@H](c2ccc(OCCO)cc2)[C@@]12C(=O)Nc1ccccc12

>  <QUANTITY>
composite z-score

>  <OBSERVED MEASUREMENT>
0.0192

$$$$
>  <STRUCTURE>
CC(=O)NCCCC[C@@H]1NC(=O)[C@@H]2C[C@H](C(=O)NCCCCN(C)C)[C@H](c3ccc(O)cc3)N2C1=O

>  <QUANTITY>
composite z-score

>  <OBSERVED MEASUREMENT>
-0.23

$$$$
>  <STRUCTURE>
CC(C)NC(=O)[C@@H]1c2ccccc2C(=O)N(Cc2ccccc2Cl)[C@H]1c1ccc(CO)cc1

>  <QUANTITY>
composite z-score

>  <OBSERVED MEASUREMENT>
0.103

$$$$

Prompt line: What measured composite z-score is associated with `C=C(CCCC)C(=O)CC[C@H](OC(=O)c1cccnc1)c1cccc(OCCO)c1` on E3 ubiquitin-protein ligase XIAP (Homo sapiens) (UniProt P98170)?
Response line: -0.0582

Prompt line: What measured composite z-score is associated with `COCCOC(=O)N1C(=O)[C@@]2(c3cc(C#CCC(C(=O)OC)C(=O)OC)ccc31)[C@H](C(=O)N1CCCCCCC1)[C@H]1C(=O)O[C@H](c3ccccc3)[C@H](c3ccccc3)N1[C@@H]2c1ccc(OCCO)cc1` on E3 ubiquitin-protein ligase XIAP (Homo sapiens) (UniProt P98170)?
Response line: 0.611
